I'd appreciate it if you could supply IC50 values for the items below.
- Study target: APOL1 (Homo sapiens, UniProt O14791)
- Sequence (O14791 whole entry S342G/I384M, form open): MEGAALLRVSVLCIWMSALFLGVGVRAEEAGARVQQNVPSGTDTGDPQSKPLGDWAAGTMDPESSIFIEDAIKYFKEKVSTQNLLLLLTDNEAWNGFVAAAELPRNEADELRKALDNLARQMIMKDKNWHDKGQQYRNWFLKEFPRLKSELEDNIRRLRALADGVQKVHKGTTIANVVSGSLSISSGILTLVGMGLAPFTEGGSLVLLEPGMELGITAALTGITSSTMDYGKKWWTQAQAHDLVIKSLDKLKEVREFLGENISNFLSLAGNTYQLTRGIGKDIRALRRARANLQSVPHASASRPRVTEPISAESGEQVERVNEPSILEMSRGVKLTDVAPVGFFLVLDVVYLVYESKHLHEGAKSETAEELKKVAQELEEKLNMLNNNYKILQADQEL
- Assay protocol: MultiTox-Fluor Multiplex Cytotoxicity Assay in tet-inducible APOL1 T-REx-HEK293 cells (cell rescue, ratio of dead to live cells)
- Test parameters: tet-inducible transgenic APOL1 T-REx-HEK293 cell lines, 50 ng/mL tet, 24 hours; read-out: IP50 (i.e., IC50 for cell proliferation)
- Method: The MultiTox-Fluor Multiplex Cytotoxicity Assay is a single-reagent-addition, homogeneous, fluorescence assay that measures the number of live and dead cells simultaneously in culture wells. […] The MultiTox reagent was added to each well and placed back in the incubator for an additional 30 minutes. The plate was read on the EnVision plate reader. A ratio of dead to live cells was used to normalize, and data was imported, analyzed, and fit using Genedata Screener (Basel, Switzerland) software. […]

Enter recorded IC50 with APOL1 (Homo sapiens, UniProt O14791) for CC(O)CCN1CC[C@]2(C[C@@H]1C)OC[C@H](O)c1cc(Cl)sc12 (stereo partly drawn) here.
500 to 1000 nM

State IC50 on APOL1 (Homo sapiens, UniProt O14791). Entry: C[C@H]1C[C@@]2(CCN1CC(N)=O)OCCc1cc(CC(F)F)sc12
500 to 1000 nM

Report IC50 on APOL1 (Homo sapiens, UniProt O14791) for this entry: CCc1cc2c(s1)CCO[C@@]21CCN(Cc2cnc(N[C@H]3CCCC[C@@H]3O)nc2)[C@@H](C)C1
< 100 nM

Quote APOL1 (Homo sapiens, UniProt O14791) IC50 for entry COc1nccc(CN2CC[C@]3(C[C@@H]2C)OC[C@H](O)c2cc(Cl)sc23)n1 .
500 to 1000 nM

Would you please give the reported IC50 of Cc1cc2c(s1)[C@]1(CCN(Cc3cnn(CCO)c3)[C@@H](C)C1)OCC2 with APOL1 (Homo sapiens, UniProt O14791)?
< 100 nM

Name the value of IC50 reported for CCc1cc2c(s1)CCO[C@@]21CCN(Cc2cnc(NCc3ccc(O)cn3)nc2)[C@@H](C)C1 when tested on APOL1 (Homo sapiens, UniProt O14791).
< 100 nM

Give IC50; test system APOL1 (Homo sapiens, UniProt O14791); molecule CCc1cc2c(s1)CCO[C@@]21CCN(C[C@H]2C[C@@H](NC(=O)COC)C2)[C@@H](C)C1
100 to 500 nM

Fill in: IC50 on APOL1 (Homo sapiens, UniProt O14791), entry CCc1cc2c(s1)CCO[C@@]21CCN(C[C@H]2C[C@@H](NC(=O)OCCOC)C2)[C@@H](C)C1
100 to 500 nM

Under APOL1 (Homo sapiens, UniProt O14791): report IC50 of Cc1cc(C(=O)N[C@H]2C[C@@H](CN3CC[C@]4(C[C@@H]3C)OCCc3cc(CC(F)F)sc34)C2)on1 .
< 100 nM

Give IC50 for this entry on APOL1 (Homo sapiens, UniProt O14791): CCc1cc2c(s1)CCO[C@@]21CCN(CC2CN(C(=O)[C@H](C)NC(C)=O)C2)[C@@H](C)C1
100 to 500 nM

Enter IC50 (test system APOL1 (Homo sapiens, UniProt O14791)) for CCc1cc2c(s1)CCO[C@@]21CCN(C[C@H]2C[C@@H](NS(=O)(=O)C(F)(F)F)C2)[C@@H](C)C1
100 to 500 nM

# assay system APOL1 (Homo sapiens, UniProt O14791): give IC50 of CCc1cc2c(s1)CCO[C@@]21CCN(C[C@H]2C[C@@H](NC(=O)Oc3ccc(Cl)cc3)C2)[C@@H](C)C1
< 100 nM

Give the observed IC50 of C[C@H]1C[C@@]2(CCN1Cc1cnn(CCS(C)(=O)=O)c1)OCC(O)c1cc(Cl)sc12 (single isomer, unassigned) [Compound 768] for APOL1 (Homo sapiens, UniProt O14791).
< 100 nM

Give APOL1 (Homo sapiens, UniProt O14791) IC50 for the following molecule: CCc1cc2c(s1)CCOC21CCN(Cc2cn(CC(CO)C(C)C)nn2)C(C)C1 (stereo not drawn)
< 100 nM

Retrieve IC50 on APOL1 (Homo sapiens, UniProt O14791); query C[C@H]1C[C@@]2(CCN1Cc1ccnn1C)OC[C@H](O)c1cc(Cl)sc12
500 to 1000 nM

---

- Study target: APOL1 (Homo sapiens)
- Assay protocol: MultiTox-Fluor Multiplex Cytotoxicity Assay in tet-inducible APOL1 T-REx-HEK293 cells (cell rescue, ratio of dead to live cells)
- Test parameters: tet-inducible transgenic APOL1 T-REx-HEK293 cell lines, 50 ng/mL tet, 24 hours; read-out: IP50 (i.e., IC50 for cell proliferation)
Measure: IC50

Read off the recorded IC50 for CCc1cc2c(s1)CCOC21CCN(Cc2ccc(N(C)S(C)(=O)=O)nc2)CC1
100 to 500 nM

Identify the reported IC50 for the following entry. C[C@H]1C[C@@]2(CCN1Cc1cnc(N[C@H]3CC[C@H](O)CC3)nc1)OCC(O)c1cc(Cl)sc12 (mixture of isomers)
< 100 nM

State its IC50: CCc1cc2c(s1)CCOC21CCN(Cc2cnc(N)s2)CC1
100 to 500 nM

Identify measured IC50 corresponding to CCc1cc2c(s1)CCO[C@@]21CCN(CC2CN(C(=O)c3ccncc3)C2)[C@@H](C)C1
< 100 nM

Annotate the compound CCc1cc2c(s1)CCOC21CCN(Cc2cn(C3CC3)nn2)CC1 with its measured IC50.
500 to 1000 nM

Give IC50 for the following compound: CCc1cc2c(s1)CCO[C@@]21CCN(Cc2cn(Cc3ncccn3)nn2)[C@@H](C)C1
100 to 500 nM

Give the measured IC50 for C[C@H]1C[C@@]2(CCN1Cc1cnn(CCS(C)(=O)=O)c1)OCCc1c2sc(Cl)c1CO
< 100 nM

Fill in reported IC50 for this entry: COc1cnc(CN2CC[C@]3(C[C@@H]2C)OCCc2c3sc(Cl)c2CO)cn1
100 to 500 nM

Let me know recorded IC50 for C[C@H]1C[C@@]2(CCN1Cc1cn(CCS(C)(=O)=O)nn1)OCCc1cc(CO)sc12 , thanks.
500 to 1000 nM

Quote IC50 reported for CCc1cc2c(s1)CCO[C@@]21CCN(C[C@H]2C[C@@H](NS(=O)(=O)c3ccc(OC)cc3)C2)[C@@H](C)C1 please.
< 100 nM

Answer with the recorded IC50 for the compound listed here: CCc1cc2c(s1)CCOC21CCN(Cc2cn(CC(O)C(C)(C)O)nn2)C(C)C1 (stereo not shown) [Compound 124]
< 100 nM

Dear colleague, please send me the reported IC50 for C[C@H]1C[C@@]2(CCN1Cc1cccc(F)c1)OCCc1c2sc(Cl)c1CO when you can.
100 to 500 nM

Give the value of IC50 reported for the following: C[C@H]1C[C@@]2(CCN1Cc1cnn(C)c1)OCC(O)c1sc(C(F)(F)F)cc12 (stereo partly shown)
< 100 nM

Please report the measured IC50 for CCc1cc2c(s1)CCO[C@@]21CCN(Cc2cn(CC3(C)COC3)nn2)[C@@H](C)C1
100 to 500 nM

Supply measured IC50 of CCc1cc2c(s1)CCO[C@@]21CCN(C[C@H]2C[C@@H](NS(=O)(=O)c3ccccc3Cl)C2)[C@@H](C)C1 in your reply.
< 100 nM

Read the entry C[C@H]1C[C@@]2(CCN1Cc1cccc(NS(C)(=O)=O)c1)OCCc1cc(Cl)sc12 and write its reported IC50.
100 to 500 nM

---

- Study target: UniProt O14791
- Assay protocol: MultiTox-Fluor Multiplex Cytotoxicity Assay in tet-inducible APOL1 T-REx-HEK293 cells (cell rescue, ratio of dead to live cells)
- Test parameters: tet-inducible transgenic APOL1 T-REx-HEK293 cell lines, 50 ng/mL tet, 24 hours; read-out: IP50 (i.e., IC50 for cell proliferation)
For each of the molecules below, state its IC50.

Given the molecule C[C@H]1C[C@@]2(CCN1Cc1cnn(CC(O)CC3(O)CCC3)c1)OC[C@@H](O)c1cc(C(F)(F)F)sc12 (stereo partly drawn) , write its reported IC50.
< 100 nM

Consider the molecule CCc1cc2c(s1)CCO[C@@]21CCN(Cc2cn(CC(C)(C)C3CCOCC3)nn2)[C@@H](C)C1 . State its measured IC50.
100 to 500 nM

Give reported IC50 value for CCc1cc2c(s1)CCO[C@@]21CCN(Cc2cn(Cc3cc(C)n[nH]3)nn2)[C@@H](C)C1
< 100 nM

Could you please provide reported IC50 for CCc1cc2c(s1)CCO[C@@]21CCN(C[C@H]2C[C@@H](NC(=O)C3(c4ccc(F)cn4)CC3)C2)[C@@H](C)C1 ? Thanks!
100 to 500 nM

Indicate the recorded IC50 value for this molecule: CCc1cc2c(s1)CCO[C@@]21CCN(CC2CN(C(=O)C3CC(=O)NC3=O)C2)[C@@H](C)C1 (stereo partly drawn)
< 100 nM

Tell me IC50 reported for CNC(=O)[C@@H](O)Cn1cc(CN2CC[C@]3(C[C@@H]2C)OC[C@@H](O)c2cc(C(F)(F)F)sc23)cn1
< 100 nM

Assign IC50 to the following record: C[C@H]1C[C@@]2(CCN1Cc1ccncc1)OCCc1cc(Cl)sc12
100 to 500 nM

Note IC50 for the molecule shown: C[C@H]1C[C@@]2(CCN1Cc1cnn(CCS(C)(=O)=O)c1)OCC(O)c1c2sc(Cl)c1Cl (stereo partly drawn) [Compound 860]
< 100 nM

Identify IC50 associated with the molecule CCc1cc2c(s1)CCOC21CCN(Cc2cn(CC(O)COC)nn2)C(C)C1 (stereo not drawn)
< 100 nM

Recall and state the measured IC50 for C[C@H]1C[C@@]2(CCN1Cc1cnn(CC(O)C3(O)CCOCC3)c1)OCCc1c2sc(C(F)(F)F)c1CO (stereo partly drawn) .
< 100 nM

For CCc1cc2c(s1)CCO[C@@]21CCN(Cc2cn(CC(C)(C)C(C)(C)O)nn2)[C@@H](C)C1 , write its IC50.
100 to 500 nM

Indicate its recorded IC50; the molecule in question is C[C@H]1C[C@@]2(CCN1Cc1cnn(CC(O)C(C)(C)O)c1)OCCc1c2sc(C(F)(F)F)c1CO (stereo partly drawn)
< 100 nM

Indicate its recorded IC50; the molecule in question is C[C@H]1C[C@@]2(CCN1Cc1cn[nH]c1)OCCc1cc(Cl)sc12
< 100 nM

Retrieve IC50 measured for C[C@H]1C[C@@]2(CCN1Cc1ccon1)OCCc1cc(CC(F)F)sc12 and print it.
< 100 nM

Tell me IC50 reported for CCc1cc2c(s1)CCO[C@@]21CCN(Cc2cnc(N[C@@H](C)C(=O)NC)nc2)[C@@H](C)C1
< 100 nM
